Source of measurements: paper PMC10709440

Biological target: Drosophila OR85b (Drosophila melanogaster)
Construct: expressed in transfected cells
Sequence (Q9VHQ7 1-390): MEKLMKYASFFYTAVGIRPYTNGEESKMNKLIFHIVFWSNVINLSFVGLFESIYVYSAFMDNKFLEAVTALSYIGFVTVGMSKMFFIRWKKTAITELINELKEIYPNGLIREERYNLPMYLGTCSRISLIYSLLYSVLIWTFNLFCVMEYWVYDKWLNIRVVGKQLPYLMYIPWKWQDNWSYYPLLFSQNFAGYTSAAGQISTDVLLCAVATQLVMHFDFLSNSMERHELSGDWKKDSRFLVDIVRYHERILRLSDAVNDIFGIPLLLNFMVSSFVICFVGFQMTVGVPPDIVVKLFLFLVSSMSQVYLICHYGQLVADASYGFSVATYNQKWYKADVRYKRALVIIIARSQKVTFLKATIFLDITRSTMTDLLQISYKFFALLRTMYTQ
Sequence (Q9VNB5 1-486 partner): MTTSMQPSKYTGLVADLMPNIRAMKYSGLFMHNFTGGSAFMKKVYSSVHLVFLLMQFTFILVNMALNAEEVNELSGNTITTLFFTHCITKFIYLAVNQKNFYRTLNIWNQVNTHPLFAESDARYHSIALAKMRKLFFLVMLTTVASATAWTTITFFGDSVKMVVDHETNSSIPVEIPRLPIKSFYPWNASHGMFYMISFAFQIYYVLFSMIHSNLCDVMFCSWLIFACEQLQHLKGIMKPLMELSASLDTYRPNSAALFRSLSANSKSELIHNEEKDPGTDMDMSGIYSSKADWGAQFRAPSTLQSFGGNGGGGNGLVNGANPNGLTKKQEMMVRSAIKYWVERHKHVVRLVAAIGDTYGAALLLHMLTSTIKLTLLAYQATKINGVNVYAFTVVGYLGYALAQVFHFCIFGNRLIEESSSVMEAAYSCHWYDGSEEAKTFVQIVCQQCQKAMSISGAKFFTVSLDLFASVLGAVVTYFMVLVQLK
Assay: Calcium ion fluorescence (GCaMP6) assay, OR85b stable HEK293 cell line
Assay type: cell-based
Conditions: concentration 100; normalized fluorescence change, values below 0.05 threshold given as 0
Readings of DF norm AVERAGE OR85b for the listed compounds
Recorded metric: DF norm AVERAGE OR85b

1) Cc1ccc(C)c(C)c1 :: 0.1212
2) CCCCCC(O)CC (stereo not drawn) :: 0
3) CCCCCC(C)O (stereo not drawn) :: 0.3169
